I'd appreciate it if you could supply inhibition values for the items below.
experiment: inhibitors of TNFa-induced NFkB p65 translocation, primary screen, imaging, HUVEC, MLSMR starter and 10KST1 sets (AID 438); settings: HUVEC TNFa-induced p65 nuclear translocation; at 2 µM, stronger effect = higher value, 0% TNFa-plus-vehicle, 100% no-TNFa wells;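 further: compound added about 3h40 before a 20 min TNFalpha stimulation; signal is the nuclear over cytoplasmic p65 intensity ratio per well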
Give bare numbers, in %.

Some solved cases for reference:
- compound: "CCOC(=O)c1cnc(-n2nc(C)cc2C)nc1NC(C)c1ccccc1 (stereo unspecified)"
  assay.value: -9.5
- compound: "CCC(=O)Nc1ccc(NC(=O)c2ccccn2)cn1"
  assay.value: -11
- compound: "O=c1[nH]c(SCc2cc(=O)n3ccccc3n2)nc2c1CCC2"
  assay.value: -8.4
- compound: "Cc1cc(=O)[nH]c(SCC(=O)NCc2ccco2)n1"
  assay.value: 8.2
- compound: "CCOC(=O)c1ccccc1NC1CC(=O)N(c2ccccc2C)C1=O (stereo unspecified)"
  assay.value: 6.7

State recorded inhibition for all listed compounds.
1. c1ccc(-c2nn3nnnc3c3ccccc23)cc1
2. COc1ccc(N2CCN(CCNS(=O)(=O)c3cccc4nsnc34)CC2)cc1
3. CC(=O)Nc1ccc(N2CCN(Cc3ccccc3F)CC2)cc1
4. COC(=O)C1=C(N)Oc2cc(C)n(Cc3ccncc3)c(=O)c2C1c1cccnc1 (stereo unspecified)
5. Cn1c(-c2ccc(F)cc2)cnc1NCc1ccccc1
6. COc1ccc(NC(=O)c2oc3ccc(S(=O)(=O)N4CCC5(CC4)OCCO5)cc3c2C)cc1

[-3, -3, 19.4, -13.5, -2.3, -4.4]

* * *

Kindly state nuclei count for each of the entries shown.
assay: endothelial E-selectin expression blockers – imaging, HUVEC, immunofluorescence, MLSMR starter and 10KST1 sets, primary screen (AID 487); settings: HUVEC TNFalpha-induced E-selectin immunofluorescence imaging, at 2 µM; measured here: cell number, toxicity;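 further: 100% = median nuclei count of all wells on the same plate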

- compound: "CC(=O)CCc1ccc(OCCCCn2cncn2)cc1"
  readout.type: "nuclei count"
  assay.value: "116%"
- compound: "CCCCN(CC)S(=O)(=O)c1ccc2c(c1)CCCN2C(C)=O"
  readout.type: "nuclei count"
  assay.value: "103%"
- compound: "CC(=O)Nc1ccc(S(=O)(=O)N2CCN(C(C)CCc3ccccc3)CC2)cc1 (stereo unspecified)"
  readout.type: "nuclei count"
  assay.value: "96.1%"
- compound: "CN(C)S(=O)(=O)Nc1ccccc1C(N)=O"
  readout.type: "nuclei count"
  assay.value: "109%"

For each listed entry, give its nuclei count.
1. CN(C)c1ccc(C=Nc2ccc(N(C)C)cc2)cc1
2. Nc1nc(CSCc2ccccc2)nc(N2CCOCC2)n1

118%
104%

* * *

Hi there, I'd appreciate the recorded NADPH fluorescence slope for every entry that follows.
molecular target: Voltage-gated potassium channel subunit beta-2 (Rattus norvegicus); experiment: enhancers of rat Kvbeta2 NADPH turnover – biochemical, NADPH fluorescence, primary screen (AID 623); conditions: Recombinant KvBeta, NADPH fluorescence decrease slope, 10 min; at 10 µM; stronger effect = lower value;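 further: fluorescence intensity change per second fitted from 20 to 320 s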
Numbers only.

Consider the following illustrative entries.
- compound: "Nc1ccc(-c2ccc(N)cc2C(F)(F)F)c(C(F)(F)F)c1"
  experimental.target: "Voltage-gated potassium channel subunit beta-2 (Rattus norvegicus)"
  readout.type: "NADPH fluorescence slope"
  assay.value: "-9.4e-05"
- compound: "CCOC(=O)c1ccc(NC(=O)CC2SC(=NC)N(C)C2=O)cc1 (stereo not drawn)"
  experimental.target: "Voltage-gated potassium channel subunit beta-2 (Rattus norvegicus)"
  readout.type: "NADPH fluorescence slope"
  assay.value: "-5.8e-05"
- compound: "COc1cccc(OC)c1C(=O)Nc1ccc(CN2CCCCC2)cc1"
  experimental.target: "Voltage-gated potassium channel subunit beta-2 (Rattus norvegicus)"
  readout.type: "NADPH fluorescence slope"
  assay.value: "-3.1e-06"

State the recorded NADPH fluorescence slope for every item in the following list.
1. Cc1cccc(C)c1NC(=O)CC(NCc1ccco1)C(=O)O (stereo not drawn)
2. CCOC(OCC)P(=O)(C(C)C)C(C)C

-6.5e-05
4e-05

Items follow; give NADPH fluorescence slope for each.
1. COc1ccc(C(C)NC(=O)c2ccoc2C)cc1OC (stereo not drawn)
2. Cc1ccc(NC(=O)CSc2nnc(-c3ccc(S(=O)(=O)N4CCOCC4)cc3)n2C)cc1
3. O=C(CN1C(=O)COCC1=O)N1CCOCC1
4. CCC(=O)N/C(N)=N/c1nc(C)c2cc(OC)ccc2n1
5. Cc1ccc(N(C(=O)c2ccncc2)C2C=CS(=O)(=O)C2)cc1 (stereo not drawn)

-2.1e-05
-7.3e-05
-0.00011
-1.1e-05
-2.8e-05

Hi team, please reply with NADPH fluorescence slope for each item in this list.
1. COc1ccc(CNC(=O)C(c2ccco2)N(Cc2cccs2)C(=O)Cc2cccs2)cc1 (stereo not drawn)
2. CCCN1CCN(C(=O)Cn2cccc2C(=O)c2ccccc2)CC1
3. Cc1ccc(-n2nc(C(=O)N3CCN(C)CC3)c3c4ccccc4n(C)c3c2=O)cc1
4. Cc1cc(=O)n2[nH]c(-c3ccc(Cl)cc3)cc2n1
5. CCC(C)OC(=O)C1=C(C)NC2=C(C(=O)C(C(=O)OC)C(C)C2)C1c1ccc(N(C)C)cc1 (stereo not drawn)
6. O=C(NC(=O)c1ccc(Cl)cc1)Nc1cc(N2CCCCC2)ncn1
7. CCOC(=O)CSc1nnc(-c2cccnc2)n1Cc1ccccc1

1: -8.4e-06; 2: -5.8e-05; 3: -2e-05; 4: -3.9e-05; 5: 2.1e-05; 6: -4.9e-05; 7: 1.1e-05

Hey, can you go through the list below and give me NADPH fluorescence slope for every item?
1. CC1(C)CC(=O)C=C(Nc2ccc(F)cc2)C1
2. COc1ccc(-c2cc(N3CCCC3)n3ncnc3n2)cc1
3. CCOCCn1c(CN2CCN(c3cccc(Cl)c3)CC2)nc2c1c(=O)n(C)c(=O)n2C
4. CCOC(=O)N1CCC(N2C(=O)c3ccccc3C2Nc2cccnc2)CC1 (stereo not drawn)

["3.1e-05", "-2.2e-05", "-4.2e-05", "4.7e-06"]

Report NADPH fluorescence slope for each item below.
1. COCCSc1nnc(NC(=O)CSCc2ccccc2)s1
2. COc1ccc(NC(=O)N2CCC(c3nc(-c4cccs4)no3)CC2)cc1

-3.2e-05
-5.2e-05

Please state, for each entry, its recorded NADPH fluorescence slope.
1. COc1ccc(OC)c(C2CC(=O)NC(SC)=C2C#N)c1 (stereo not drawn)
2. CCN(CC)C(=O)Oc1ccc(NC(C)=O)cc1
3. Cc1nc2ccccc2c(=O)n1/N=C/c1ccncc1
4. COCCn1nnnc1SCC(=O)N1CCCCC1

1. -3.6e-05
2. -6.8e-05
3. -3.4e-05
4. -9.6e-06

I need NADPH fluorescence slope for every entry listed below, if you could help.
1. COc1ccc(NC(=O)CSc2ccccn2)cc1OC
2. O=C(CNS(=O)(=O)c1ccccc1)NCc1ccccn1
3. CC(=O)NCc1cccc(CNC(C)=O)n1
4. COc1cc(C)nc(OCCNC(=O)COc2ccc(Cl)cc2C)n1
5. CN(C)C=Nc1nonc1N
6. C=CCn1c(SCC(=O)Nc2ccc3c(c2)OCO3)nc2ccccc2c1=O
7. Cc1ccc(C)n1-c1ccc(-n2cnnn2)cc1
8. Cc1cc(C)n2nc(SCc3nc4ccccc4[nH]3)nc2n1

["-1.5e-05", "-1.9e-05", "-2.5e-05", 0.00012, "-7.3e-05", "-3.8e-05", "-5.9e-05", "8.8e-06"]

Parameters: items (list). Returns: NADPH fluorescence slope for each item.
1. Cc1cc(/C=N/n2cnnc2)c(C)n1-c1ccc(Cl)cc1Cl
2. CC(C)Oc1ccc(-c2nn(-c3ccccc3)cc2/C=c2\sc3ncnn3c2=O)cc1
3. COc1ccccc1NC(=O)N(Cc1ccccc1)c1ccccn1
4. O=S(=O)(c1ccc(Br)s1)N1CCCCC1
5. CO/C([O-])=N/c1c[n+](-c2ccc(C)cc2)no1
6. Cc1cc(C)cc(N2C(=O)C3C4C=CC(C4)C3C2=O)c1 (stereo not drawn)
7. COc1ccc(S(=O)(=O)NCc2ccc(C(=O)O)cc2)cc1

1: -3e-05; 2: 1e-05; 3: -7e-05; 4: 4.4e-05; 5: -4.7e-05; 6: -4.1e-05; 7: -2.6e-05
